- STUDY_SYSTEM: T1, H4-15 histone H4 tail peptide
- T1 chain: GRGKGGKGLGKGGAK
MEASUREMENT_LABEL: Km(µM) for H4-15

| PROTEIN | Km(µM) for H4-15 |
| --- | --- |
| semi-synthetic p300 HAT domain E1505R (protein) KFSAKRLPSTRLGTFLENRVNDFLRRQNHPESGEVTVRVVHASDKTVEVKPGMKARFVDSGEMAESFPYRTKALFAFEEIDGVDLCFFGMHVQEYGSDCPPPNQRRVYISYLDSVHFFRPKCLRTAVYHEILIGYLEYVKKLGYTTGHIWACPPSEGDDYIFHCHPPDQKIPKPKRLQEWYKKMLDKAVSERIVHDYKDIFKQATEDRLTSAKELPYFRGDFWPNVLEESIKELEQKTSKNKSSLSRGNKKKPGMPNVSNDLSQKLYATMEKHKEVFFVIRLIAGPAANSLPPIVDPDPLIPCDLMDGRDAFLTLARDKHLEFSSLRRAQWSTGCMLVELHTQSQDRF | >1000 |

Here is the next item to consider.
Q: Which Km(µM) for H4-15 reading was recorded for the protein semi-synthetic p300 HAT domain, wild-type (protein) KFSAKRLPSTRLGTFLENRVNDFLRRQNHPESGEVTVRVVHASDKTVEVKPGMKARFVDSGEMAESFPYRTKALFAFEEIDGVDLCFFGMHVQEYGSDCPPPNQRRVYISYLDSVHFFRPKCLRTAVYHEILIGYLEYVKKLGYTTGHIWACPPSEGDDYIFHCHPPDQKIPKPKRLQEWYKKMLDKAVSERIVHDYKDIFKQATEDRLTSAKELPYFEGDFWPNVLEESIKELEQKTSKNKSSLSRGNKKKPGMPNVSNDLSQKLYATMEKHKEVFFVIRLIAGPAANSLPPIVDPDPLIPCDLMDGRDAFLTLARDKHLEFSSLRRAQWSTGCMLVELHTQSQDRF ?
Result: 164 µM
